Molecular target: human orexin-2 receptor (Homo sapiens (Human))
Sequence (O43614 whole entry): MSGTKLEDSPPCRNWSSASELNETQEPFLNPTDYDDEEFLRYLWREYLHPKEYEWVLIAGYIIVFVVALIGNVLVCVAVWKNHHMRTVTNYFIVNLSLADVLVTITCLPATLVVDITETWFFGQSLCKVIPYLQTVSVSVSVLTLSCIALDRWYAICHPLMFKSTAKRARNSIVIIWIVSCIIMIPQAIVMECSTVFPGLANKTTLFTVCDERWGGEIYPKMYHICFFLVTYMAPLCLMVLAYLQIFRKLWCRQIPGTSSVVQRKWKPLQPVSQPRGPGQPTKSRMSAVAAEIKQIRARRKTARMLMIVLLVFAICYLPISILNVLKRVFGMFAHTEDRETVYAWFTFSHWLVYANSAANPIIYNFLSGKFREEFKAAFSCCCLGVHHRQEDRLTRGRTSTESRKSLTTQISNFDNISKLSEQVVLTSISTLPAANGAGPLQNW
Assay: In vitro assay: intracellular calcium measurements (FLIPR), antagonistic activity
Type: cell-based
Conditions: CHO cells, 3 nM orexin-A, compound incubation 120 min; marked values are geometric means of n = 2-6; read-out: IC50 OX2
Description: In Vitro Assay: Intracellular Calcium Measurements: […] Fluorescence is measured for each well at 1 second intervals, and the height of each fluorescence peak is compared to the height of the fluorescence peak induced by 3 nM orexin-A with vehicle in place of antagonist. […] The calculated IC50 values may fluctuate depending on the daily cellular assay performance. […]
Measure Name: IC50 (nM)
Answers are plain numbers, in nM.

Some compounds with known IC50 results, for comparison:
Item COc1ccnc(OC)c1C1CC(C)C(=O)N1Cc1cccc(-c2csc(C)n2)c1 (centres unmarked) [Example 356] : provide IC50
113

Item COc1cccc(OC)c1C1CC(C)C(=O)N1Cc1cc2ccccc2n1C (centres unmarked) [Example 388] : provide IC50
132

Your task in this section: give IC50 for each listed record.
1. COc1ccc2c(c1C1CCCC(=O)N1Cc1ccc(OC(F)(F)F)cc1)OCO2 (centres unmarked) [Example 449]
2. COc1c(F)ccc(F)c1[C@@H]1C[C@H](F)C(=O)N1Cc1ccc(OC(F)(F)F)cc1 (racemic) [Example 321]
3. CCOc1cc(F)cc(F)c1[C@@H]1C[C@H](F)C(=O)N1Cc1ccc(OC(F)(F)F)cc1 (racemic) [Example 438]

[23, 405, 37]
